biological target: mPSF (CPSF160-WDR33-CPSF30-Fip1) (human, UniProt Q10570;Q9C0J8;O95639-2;Q6UN15 1-1443;1-572;1-244;1-594); assay: competition fluorescence anisotropy; vs FAM-AAUAAA; 20 mM Tris pH 8.0, 150 mM NaCl, 10 mM DTT, 100 nM BSA, 0.01% NP-40; 45 min on ice, read at room temperature; triplicates; conditions: protein: recombinant; copies: 1;1;1;1
Sequence (Q10570 whole entry, chain 1 of 4): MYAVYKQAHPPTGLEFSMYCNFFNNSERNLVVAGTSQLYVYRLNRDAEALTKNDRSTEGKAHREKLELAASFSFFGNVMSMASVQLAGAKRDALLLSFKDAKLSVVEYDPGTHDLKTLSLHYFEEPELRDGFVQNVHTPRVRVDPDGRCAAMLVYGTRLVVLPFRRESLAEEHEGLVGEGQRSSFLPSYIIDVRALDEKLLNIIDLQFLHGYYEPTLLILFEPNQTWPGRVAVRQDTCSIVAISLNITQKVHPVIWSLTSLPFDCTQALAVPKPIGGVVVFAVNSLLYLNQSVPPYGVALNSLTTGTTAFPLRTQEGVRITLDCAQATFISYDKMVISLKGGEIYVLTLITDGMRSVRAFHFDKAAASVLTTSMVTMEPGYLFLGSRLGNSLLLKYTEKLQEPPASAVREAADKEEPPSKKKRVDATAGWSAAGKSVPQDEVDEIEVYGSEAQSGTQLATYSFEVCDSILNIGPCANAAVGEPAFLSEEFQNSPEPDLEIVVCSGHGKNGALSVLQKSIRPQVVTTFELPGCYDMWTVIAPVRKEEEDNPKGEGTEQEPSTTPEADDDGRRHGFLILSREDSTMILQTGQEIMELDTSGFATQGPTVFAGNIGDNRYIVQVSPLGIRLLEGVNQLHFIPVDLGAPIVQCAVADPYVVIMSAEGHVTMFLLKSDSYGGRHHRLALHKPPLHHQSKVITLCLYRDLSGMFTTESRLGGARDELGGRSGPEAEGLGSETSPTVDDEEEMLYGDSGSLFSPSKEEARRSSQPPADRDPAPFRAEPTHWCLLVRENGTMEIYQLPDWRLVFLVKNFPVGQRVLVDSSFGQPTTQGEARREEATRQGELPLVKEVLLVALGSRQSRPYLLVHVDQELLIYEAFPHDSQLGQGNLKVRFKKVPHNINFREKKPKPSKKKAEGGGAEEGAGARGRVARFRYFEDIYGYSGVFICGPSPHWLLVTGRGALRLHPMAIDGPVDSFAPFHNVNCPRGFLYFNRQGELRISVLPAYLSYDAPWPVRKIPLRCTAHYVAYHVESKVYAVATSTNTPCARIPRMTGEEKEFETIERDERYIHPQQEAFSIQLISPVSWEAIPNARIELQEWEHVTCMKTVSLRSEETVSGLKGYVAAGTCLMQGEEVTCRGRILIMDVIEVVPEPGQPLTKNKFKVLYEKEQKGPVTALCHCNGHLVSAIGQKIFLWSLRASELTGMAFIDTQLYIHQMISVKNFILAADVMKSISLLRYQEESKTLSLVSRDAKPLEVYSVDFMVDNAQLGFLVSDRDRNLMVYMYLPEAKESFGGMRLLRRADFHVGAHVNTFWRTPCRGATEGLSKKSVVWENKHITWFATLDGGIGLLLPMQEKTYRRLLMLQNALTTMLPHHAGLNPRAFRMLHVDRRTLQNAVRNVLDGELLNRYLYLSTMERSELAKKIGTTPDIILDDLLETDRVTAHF
Sequence (Q9C0J8 1-572, chain 2 of 4): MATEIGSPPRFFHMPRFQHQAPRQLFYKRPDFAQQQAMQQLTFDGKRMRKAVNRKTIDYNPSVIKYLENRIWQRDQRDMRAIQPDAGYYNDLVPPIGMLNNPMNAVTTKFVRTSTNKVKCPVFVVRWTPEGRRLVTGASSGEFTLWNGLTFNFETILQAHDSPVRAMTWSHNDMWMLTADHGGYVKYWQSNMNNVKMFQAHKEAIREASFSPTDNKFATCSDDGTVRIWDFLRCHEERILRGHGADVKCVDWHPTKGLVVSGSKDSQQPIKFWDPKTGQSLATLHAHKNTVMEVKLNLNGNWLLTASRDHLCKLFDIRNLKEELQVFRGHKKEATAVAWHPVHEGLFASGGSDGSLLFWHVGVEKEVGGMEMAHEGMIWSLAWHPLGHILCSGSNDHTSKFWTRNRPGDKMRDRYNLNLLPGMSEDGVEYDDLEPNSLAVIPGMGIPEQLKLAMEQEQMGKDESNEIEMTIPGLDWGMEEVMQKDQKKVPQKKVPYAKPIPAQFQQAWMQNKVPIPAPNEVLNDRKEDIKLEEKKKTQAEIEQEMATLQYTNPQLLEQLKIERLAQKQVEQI
Sequence (O95639 other isoform, or with tags, fused parts or gaps, chain 3 of 4): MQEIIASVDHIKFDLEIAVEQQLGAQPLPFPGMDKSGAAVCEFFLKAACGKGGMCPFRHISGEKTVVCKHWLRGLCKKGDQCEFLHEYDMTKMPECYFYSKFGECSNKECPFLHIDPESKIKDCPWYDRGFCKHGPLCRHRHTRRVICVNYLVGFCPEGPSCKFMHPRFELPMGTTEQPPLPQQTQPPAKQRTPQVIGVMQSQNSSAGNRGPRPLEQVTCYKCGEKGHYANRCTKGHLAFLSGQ
Sequence (Q6UN15 whole entry, chain 4 of 4): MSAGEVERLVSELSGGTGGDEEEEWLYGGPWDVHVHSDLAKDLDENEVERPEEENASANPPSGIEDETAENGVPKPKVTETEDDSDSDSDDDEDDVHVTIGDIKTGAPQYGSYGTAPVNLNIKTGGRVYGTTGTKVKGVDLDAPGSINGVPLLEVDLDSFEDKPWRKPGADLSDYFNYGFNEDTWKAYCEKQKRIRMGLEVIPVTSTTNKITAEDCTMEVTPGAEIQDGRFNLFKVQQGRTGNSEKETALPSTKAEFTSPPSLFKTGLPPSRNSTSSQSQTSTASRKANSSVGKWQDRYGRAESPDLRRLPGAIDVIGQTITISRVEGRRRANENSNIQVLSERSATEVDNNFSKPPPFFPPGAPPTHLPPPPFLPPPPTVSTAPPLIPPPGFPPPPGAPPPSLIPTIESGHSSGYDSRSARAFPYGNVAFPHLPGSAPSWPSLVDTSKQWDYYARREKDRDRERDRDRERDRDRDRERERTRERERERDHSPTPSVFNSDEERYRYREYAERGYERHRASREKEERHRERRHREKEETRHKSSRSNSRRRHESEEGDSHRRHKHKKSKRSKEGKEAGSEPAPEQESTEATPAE
pKd: −log10 of the molar value.
Each entry below carries its recorded pKd.
propertyMeasured: pKd

INSERT INTO assay_data (binder, quantitativeresult) VALUES
  ('UGCUAUAAACAA (ssRNA) [CUAUAAA-context UAUAAA 12-mer]', 6.28),
  ('UGCAACAAACAA (ssRNA) [AACAAA 12-mer]', 4.89),
  ('UGCAAUAUACAA (ssRNA) [AAUAUA 12-mer]', 5.60),
  ('UGCAAUAGACAA (ssRNA) [AAUAGA 12-mer]', 5.70),
  ('UGCACUAAACAA (ssRNA) [ACUAAA 12-mer]', 5.57),
  ('UGCAAUAAGCAA (ssRNA) [AAUAAG 12-mer]', 4.94),
  ('UGCAUUAAACAA (ssRNA) [AUUAAA 12-mer]', 7.10),
  ('UGCAAUACACAA (ssRNA) [AAUACA 12-mer]', 5.66);
